Would you kindly list RCP Ac-225 for each of these molecules?
procedure summary: Radiochemical purity (RCP) by iTLC after radiolabeling with Ac-225
Format: physicochemical
particulars: labelling concentration 0.02 mM
Please give a number only; it is taken to be in %.

Supply recorded RCP Ac-225 for Nc1cc(CN2CCOCCOCCN(Cc3cccc(C(=O)O)n3)CCOCCOCC2)nc(C(=O)O)c1 [Macropa-NH2, reference compound] here.
99

Supply recorded RCP Ac-225 for COC(=O)c1cccc(CN2CCOCCOCCN(Cc3cc(NC(=O)COCC(=O)NCCN(CCN)CCCN(CCN)CCNC(=O)COCC(=O)Nc4cc(CN5CCOCCOCCN(Cc6cccc(C(=O)OC)n6)CCOCCOCC5)nc(C(=O)OC)c4)cc(C(=O)OC)n3)CCOCCOCC2)n1 here.
100

Supply recorded RCP Ac-225 for COC(=O)c1cccc(CN2CCOCCOCCN(Cc3cc(NC(=O)COCC(=O)NCCN(CCCN(CCNC(=O)COCC(=O)Nc4cc(CN5CCOCCOCCN(Cc6cccc(C(=O)OC)n6)CCOCCOCC5)nc(C(=O)OC)c4)CCNC(=O)COCC(=O)Nc4cc(CN5CCOCCOCCN(Cc6cccc(C(=O)OC)n6)CCOCCOCC5)nc(C(=O)OC)c4)CCNC(=O)COCC(=O)Nc4cc(CN5CCOCCOCCN(Cc6cccc(C(=O)OC)n6)CCOCCOCC5)nc(C(=O)OC)c4)cc(C(=O)OC)n3)CCOCCOCC2)n1 here.
99
